Data origin, for the record: PubChem BioAssay (NCATS)

# Tested Target: DNA repair nuclease/redox regulator APEX1 (Homo sapiens)
# Test Description: qHTS Validation Assay for Inhibitors of the Human Apurinic/apyrimidinic Endonuclease 1 (APE1) (AID 1705)
# Condition Description: purified APE1 endonuclease activity, fluorescence, titration; series mostly up to 57.1 µM
Records with an inconclusive call do not appear. Activity calls are given as the source filed them. The call rests on the fitted dose curve; in most records, active means well fitted inhibition curve with a large enough effect; inconclusive means small, poorly fitted or top-dose-only effect; inactive means flat fitted curve, though single readings scatter.
Possible outcomes: class 1 (active), class 0 (inactive)

>  <Compound>
O=C(c1ccccc1)c1ccc2n1CCC2C(=O)O (stereo not given)

>  <Classification>
class 0

$$$$
>  <Compound>
CC1(C)NC(=O)N(c2ccc([N+](=O)[O-])c(C(F)(F)F)c2)C1=O

>  <Classification>
class 0

$$$$
>  <Compound>
CN(C)CCCC1(c2ccc(F)cc2)OCc2cc(C#N)ccc21 (stereo not given)

>  <Classification>
class 0

$$$$
>  <Compound>
Oc1ccc(-c2nc(-c3ccc(F)cc3)c(-c3ccncc3)[nH]2)cc1

>  <Classification>
class 0

$$$$
>  <Compound>
Cc1c(OCC(F)(F)F)ccnc1CS(=O)c1nc2ccccc2[nH]1 (stereo not given)

>  <Classification>
class 0

$$$$
>  <Compound>
Cc1cccc(C#Cc2ccccc2)n1

>  <Classification>
class 0

$$$$
>  <Compound>
C[C@@H](N)C1CCC(C(=O)Nc2ccncc2)CC1 (stereo not given in full)

>  <Classification>
class 0

$$$$
>  <Compound>
O=c1ccc2ccc(O)c(O)c2o1

>  <Classification>
class 1

$$$$
>  <Compound>
O=C(O)c1cccnc1Nc1cccc(C(F)(F)F)c1

>  <Classification>
class 0

$$$$
>  <Compound>
O=c1c(O)c(-c2ccc(O)cc2O)oc2cc(O)cc(O)c12

>  <Classification>
class 1

$$$$
>  <Compound>
O=C1c2c(O)cc(O)cc2OC(c2ccc(O)c(O)c2)C1O (stereo not given)

>  <Classification>
class 0

$$$$
>  <Compound>
COc1cc2nc(N3CCN(C(=O)C4CCCO4)CC3)nc(N)c2cc1OC (stereo not given)

>  <Classification>
class 0

$$$$
>  <Compound>
O=C(NCC1CCCCN1)c1cc(OCC(F)(F)F)ccc1OCC(F)(F)F (stereo not given)

>  <Classification>
class 0

$$$$
>  <Compound>
NNc1nncc2ccccc12

>  <Classification>
class 0

$$$$
>  <Compound>
O=C(CCc1ccc(O)cc1)c1c(O)cc(O)cc1O

>  <Classification>
class 0

$$$$
>  <Compound>
Nc1nc(OCc2ccccc2)c2[nH]cnc2n1

>  <Classification>
class 0

$$$$
>  <Compound>
COc1ccccc1N1CCN(CCN(C(=O)C2CCCCC2)c2ccccn2)CC1

>  <Classification>
class 0

$$$$
>  <Compound>
CNC[C@H](O)c1ccc(O)c(O)c1

>  <Classification>
class 0

$$$$
>  <Compound>
CC(C)c1ccc2c(c1)c(SC(C)(C)C)c(CC(C)(C)C(=O)O)n2Cc1ccc(Cl)cc1

>  <Classification>
class 1

$$$$
>  <Compound>
CCN(CC)C(=S)SSC(=S)N(CC)CC

>  <Classification>
class 0

$$$$

====

# Test Description: Primary qHTS for inhibitors of La Crosse Virus (LACV) - induced cell death in SH-SY5Y cells (AID 1508616);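 further: top concentration of the series differs between compounds; 0% = infected DMSO wells and 100% = uninfected DMSO wells; higher means more rescue of cells from virus-induced death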
# Condition Description: SH-SY5Y LACV cytopathicity rescue, ATP luminescence, 6 d; series mostly up to 4.29 µM
# Excerpt: Assay Provider: Karin Peterson Ph.D. National Institute of Allergy and Infection Diseases, National Institute of Health […] 8. Detection; Luminescence; View […] 6. Dispense 24 microL/well of ATPLite 1step Luminescence assay system (PerkinElmer). […] 8. Read luminescence signal (Viewlux plate reader, PerkinElmer). […]
Inconclusive results are not listed. Calls of active or inactive are those of the source. Calls come from the whole dose curve; as a rule, active = well fitted inhibition curve with a large enough effect; inconclusive = small, poorly fitted or top-dose-only effect; inactive = no such curve, though single readings can be large or run the other way. Non-standard residues stand in square brackets, D forms with d. Residues, ends and D or L forms follow the SMILES beside them. *: point of attachment. Sta = CC(C)C[C@H](N)[C@@H](O)CC(=O)O; Isovaleryl = CC(C)CC(=O)*

>  <Compound>
Cc1cccc(C#Cc2ccccc2)n1

>  <activity change>
inactive

$$$$
>  <Compound>
Oc1ccc(-c2nc(-c3ccc(F)cc3)c(-c3ccncc3)[nH]2)cc1

>  <activity change>
inactive

$$$$
>  <Compound>
COc1cc(C(C)=O)ccc1OCCCN1CCC(c2noc3cc(F)ccc23)CC1

>  <activity change>
inactive

$$$$
>  <Compound>
COc1cc(Nc2c(C#N)cnc3cc(OCCCN4CCN(C)CC4)c(OC)cc23)c(Cl)cc1Cl

>  <activity change>
inactive

$$$$
>  <Compound>
Cc1cc(=O)c2c(O)c3c(O)cc(=O)c4c3c3c(cc(O)c1c23)C(C)(C)C=4O

>  <activity change>
inactive

$$$$
>  <Compound>
CC(C)Oc1ccc2c(=O)c(-c3ccccc3)coc2c1

>  <activity change>
inactive

$$$$
>  <Compound>
COc1c2occc2cc2ccc(=O)oc12

>  <activity change>
inactive

$$$$
>  <Compound>
Clc1ccc(C(Cn2ccnc2)OCc2ccc(Sc3ccccc3)cc2)c(Cl)c1 (configuration not stated)

>  <activity change>
inactive

$$$$
>  <Compound>
OC(CN1CCN(c2cccc(Cl)c2)CC1)C(c1ccccc1)c1ccccc1 (configuration not stated)

>  <activity change>
inactive

$$$$
>  <Compound>
CCN(CCO)CCCC(C)Nc1ccnc2cc(Cl)ccc12 (configuration not stated)

>  <activity change>
-0.436% [at 0.431 µM] (inactive)

$$$$
>  <Compound>
Cc1ccc(S(=O)(=O)NC(=O)NN2CC3CCCC3C2)cc1 (configuration not stated)

>  <activity change>
inactive

$$$$
>  <Compound>
CCCOc1ccc2nc(NC(=O)OC)[nH]c2c1

>  <activity change>
inactive

$$$$
>  <Compound>
O=C(NOCC1CC1)c1ccc(F)c(F)c1Nc1ccc(I)cc1Cl

>  <activity change>
inactive

$$$$
>  <Compound>
CC(C)CC(=O)N[C@H](C(=O)N[C@H](C(=O)N[C@@H](CC(C)C)[C@@H](O)CC(=O)N[C@@H](C)C(=O)N[C@@H](CC(C)C)[C@@H](O)CC(=O)O)C(C)C)C(C)C (Isovaleryl-VV[Sta]A[Sta]-OH)

>  <activity change>
inactive

$$$$
>  <Compound>
CN(C)c1ccc2nc3ccc(=[N+](C)C)cc-3sc2c1

>  <activity change>
inactive

$$$$
>  <Compound>
CC(C)C[C@H](NC(=O)[C@H](Cc1ccccc1)NC(=O)c1cnccn1)B(O)O

>  <activity change>
inactive

$$$$
>  <Compound>
COC1=C(OC)C(=O)C(CCCCCCCCCCO)=C(C)C1=O

>  <activity change>
inactive

$$$$
>  <Compound>
Cc1nc(Nc2ncc(C(=O)Nc3c(C)cccc3Cl)s2)cc(N2CCN(CCO)CC2)n1

>  <activity change>
inactive

$$$$
>  <Compound>
Cc1nc2n(c(=O)c1CCN1CCC(c3noc4cc(F)ccc34)CC1)CCCC2

>  <activity change>
inactive

$$$$
>  <Compound>
CC(S)C(=O)NCC(=O)O (configuration not stated)

>  <activity change>
inactive

$$$$
>  <Compound>
Cc1nccn1CC1CCc2c(c3ccccc3n2C)C1=O (configuration not stated)

>  <activity change>
inactive

$$$$
>  <Compound>
N=C(N=C(N)N)N1CCOCC1

>  <activity change>
inactive

$$$$
